System: Streptococcus pneumoniae
Test Name: Antibacterial activity against telethromycin-resistant Streptococcus pneumoniae 217 expressing erm gene by NCCLS method
Assay type: functional

{"Smiles Notation": "C=CCN(C)[C@H]1C[C@@H](C)O[C@@H](O[C@@H]2[C@@H](C)[C@H](OC(=O)Cc3ccccn3)[C@@H](C)C(=O)O[C@H](CC)[C@@]3(C)OC(=O)N(CCCCn4cnc(-c5ccco5)c4)[C@@H]3[C@@H](C)C(=O)[C@H](C)C[C@@]2(C)OC)[C@@H]1O", "MIC": "1 µg/mL"}
{"Smiles Notation": "C=CCN(C)[C@H]1C[C@@H](C)O[C@@H](O[C@@H]2[C@@H](C)[C@H](OC(=O)Cc3cccnc3)[C@@H](C)C(=O)O[C@H](CC)[C@@]3(C)OC(=O)N(CCCCn4cnc5ncccc54)[C@@H]3[C@@H](C)C(=O)[C@H](C)C[C@@]2(C)OC)[C@@H]1O", "MIC": "0.5 µg/mL"}
{"Smiles Notation": "C=CCN(C)[C@H]1C[C@@H](C)O[C@@H](O[C@@H]2[C@@H](C)[C@H](OC(=O)Cc3ccccn3)[C@@H](C)C(=O)O[C@H](CC)[C@@]3(C)OC(=O)N(CCCCn4cnc(-c5ccnc(N)c5)c4)[C@@H]3[C@@H](C)C(=O)[C@H](C)C[C@@]2(C)OC)[C@@H]1O", "MIC": "0.125 µg/mL"}
{"Smiles Notation": "C=CCN(C)[C@H]1C[C@@H](C)O[C@@H](O[C@@H]2[C@@H](C)[C@H](OC(=O)Cc3ccccn3)[C@@H](C)C(=O)O[C@H](CC)[C@@]3(C)OC(=O)N(CCCCn4cnc5ncccc54)[C@@H]3[C@@H](C)C(=O)[C@H](C)C[C@@]2(C)OC)[C@@H]1O", "MIC": "0.125 µg/mL"}
